Listed binders paired with reported average relative binding (%)
biological target: T1, HLA-A*02:01 class I complex (conditional p*HLA*02:01, biotinylated heavy chain with beta2-microglobulin) (human, biotinylated heavy chain); experiment: UV peptide exchange, HLA class I ELISA; high end of the group, member by Table 4
T1 construct: UV-labile peptide p* is cleaved and exchanged for the test peptide; also called HLA 2.1

Example binders with recorded average relative binding (%):
INSERT INTO results (binder, result) VALUES
  ('KMYPVQLWL (also called M133) [TP53_C141Y8 mimic peptide KMYPVQLWL]', '102 to 113%'),
  ('YMDSGIHFV (also called M033) [CTNNB1_S37F6 mimic peptide YMDSGIHFV]', '90 to 100%'),
  ('ALNNMFCQV (also called M161) [TP53_K132N5 mimic peptide ALNNMFCQV]', '61 to 69%');

Could you now consider this next binder?
Problem: Name the recorded average relative binding (%) of the item SMTCTYFPI (also called M215) [TP53_S127F12 mimic peptide SMTCTYFPI] in your answer.
Result: 18 to 28%
